For reference, Ki measured on hCA I (Homo sapiens):
Just the number in nM, nothing appended.

Below are worked cases with known answers.
- molecule: "CC1=NN(C(=O)c2ccc(Br)cc2)C(=O)C1N=Nc1ccc(S(N)(=O)=O)cc1 (stereo not drawn)"
  units-of-measure: "nM"
  Ki: 49.2
- molecule: "CC1=NN(C(=O)c2cccc(Cl)c2)C(=O)C1/N=N/c1cccc(S(N)(=O)=O)c1 (stereo not drawn)"
  units-of-measure: "nM"
  Ki: 37.7

Let us examine a further case.
Requested read-out Ki, target or system hCA I (Homo sapiens), entry CC1=NN(C(=O)c2ccccc2)C(=O)C1/N=N/c1cccc(S(N)(=O)=O)c1 (stereo not drawn)
73.2
